Data provenance: ChEMBL document CHEMBL4118196

Molecular target: Cytochrome P450 2C8 (Homo sapiens)
Sequence (P10632 whole entry): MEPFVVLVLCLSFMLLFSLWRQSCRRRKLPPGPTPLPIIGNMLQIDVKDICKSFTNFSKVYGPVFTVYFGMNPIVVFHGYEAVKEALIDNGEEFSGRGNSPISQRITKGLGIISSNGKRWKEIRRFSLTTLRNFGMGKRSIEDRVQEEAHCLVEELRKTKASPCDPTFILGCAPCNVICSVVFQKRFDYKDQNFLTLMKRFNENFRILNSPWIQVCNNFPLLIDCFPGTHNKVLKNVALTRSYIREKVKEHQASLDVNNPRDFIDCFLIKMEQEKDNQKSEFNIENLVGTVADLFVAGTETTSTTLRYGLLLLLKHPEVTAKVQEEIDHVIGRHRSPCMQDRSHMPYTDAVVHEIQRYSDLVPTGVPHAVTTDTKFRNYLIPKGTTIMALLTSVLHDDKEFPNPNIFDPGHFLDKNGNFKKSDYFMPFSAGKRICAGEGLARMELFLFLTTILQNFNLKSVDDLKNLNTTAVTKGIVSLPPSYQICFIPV
metric: IC50

Incoming: Which value of IC50 has been reported for `Cn1cc(-c2ccc(-c3ccc(C4=NC5(CC5)C(=O)N4C[C@@H]4CCN(C(=O)C5CC5)C4)cc3)cc2)cn1` in the records?
Outgoing: > 10 µM

----------
assay: Tmax in mouse at 10 mg/kg, po; type: ADME, organism-based; settings: in vivo
metric: Tmax (h)
Numeric answer only, unit h assumed.

Incoming: Which value of Tmax has been reported for `Cn1cc(-c2ccc(-c3ccc(C4=NC5(CC5)C(=O)N4C[C@@H]4CCN(C(=O)C5CC5)C4)cc3)cc2)cn1` in the records?
Outgoing: 2

----------
assay: Protein binding in human plasma; assay type: ADME, cell-free; settings: read-out: PPB (converted)
metric: fraction unbound

Incoming: Which value of fraction unbound has been reported for `Cn1cc(-c2ccc(-c3ccc(C4=NC5(CC5)C(=O)N4C[C@@H]4CCN(C(=O)C5CC5)C4)cc3)cc2)cn1` in the records?
Outgoing: 0.059

----------
// values below are IC50; system is Fatty acid synthase (Homo sapiens, UniProt P49327)
Sequence (P49327 whole entry): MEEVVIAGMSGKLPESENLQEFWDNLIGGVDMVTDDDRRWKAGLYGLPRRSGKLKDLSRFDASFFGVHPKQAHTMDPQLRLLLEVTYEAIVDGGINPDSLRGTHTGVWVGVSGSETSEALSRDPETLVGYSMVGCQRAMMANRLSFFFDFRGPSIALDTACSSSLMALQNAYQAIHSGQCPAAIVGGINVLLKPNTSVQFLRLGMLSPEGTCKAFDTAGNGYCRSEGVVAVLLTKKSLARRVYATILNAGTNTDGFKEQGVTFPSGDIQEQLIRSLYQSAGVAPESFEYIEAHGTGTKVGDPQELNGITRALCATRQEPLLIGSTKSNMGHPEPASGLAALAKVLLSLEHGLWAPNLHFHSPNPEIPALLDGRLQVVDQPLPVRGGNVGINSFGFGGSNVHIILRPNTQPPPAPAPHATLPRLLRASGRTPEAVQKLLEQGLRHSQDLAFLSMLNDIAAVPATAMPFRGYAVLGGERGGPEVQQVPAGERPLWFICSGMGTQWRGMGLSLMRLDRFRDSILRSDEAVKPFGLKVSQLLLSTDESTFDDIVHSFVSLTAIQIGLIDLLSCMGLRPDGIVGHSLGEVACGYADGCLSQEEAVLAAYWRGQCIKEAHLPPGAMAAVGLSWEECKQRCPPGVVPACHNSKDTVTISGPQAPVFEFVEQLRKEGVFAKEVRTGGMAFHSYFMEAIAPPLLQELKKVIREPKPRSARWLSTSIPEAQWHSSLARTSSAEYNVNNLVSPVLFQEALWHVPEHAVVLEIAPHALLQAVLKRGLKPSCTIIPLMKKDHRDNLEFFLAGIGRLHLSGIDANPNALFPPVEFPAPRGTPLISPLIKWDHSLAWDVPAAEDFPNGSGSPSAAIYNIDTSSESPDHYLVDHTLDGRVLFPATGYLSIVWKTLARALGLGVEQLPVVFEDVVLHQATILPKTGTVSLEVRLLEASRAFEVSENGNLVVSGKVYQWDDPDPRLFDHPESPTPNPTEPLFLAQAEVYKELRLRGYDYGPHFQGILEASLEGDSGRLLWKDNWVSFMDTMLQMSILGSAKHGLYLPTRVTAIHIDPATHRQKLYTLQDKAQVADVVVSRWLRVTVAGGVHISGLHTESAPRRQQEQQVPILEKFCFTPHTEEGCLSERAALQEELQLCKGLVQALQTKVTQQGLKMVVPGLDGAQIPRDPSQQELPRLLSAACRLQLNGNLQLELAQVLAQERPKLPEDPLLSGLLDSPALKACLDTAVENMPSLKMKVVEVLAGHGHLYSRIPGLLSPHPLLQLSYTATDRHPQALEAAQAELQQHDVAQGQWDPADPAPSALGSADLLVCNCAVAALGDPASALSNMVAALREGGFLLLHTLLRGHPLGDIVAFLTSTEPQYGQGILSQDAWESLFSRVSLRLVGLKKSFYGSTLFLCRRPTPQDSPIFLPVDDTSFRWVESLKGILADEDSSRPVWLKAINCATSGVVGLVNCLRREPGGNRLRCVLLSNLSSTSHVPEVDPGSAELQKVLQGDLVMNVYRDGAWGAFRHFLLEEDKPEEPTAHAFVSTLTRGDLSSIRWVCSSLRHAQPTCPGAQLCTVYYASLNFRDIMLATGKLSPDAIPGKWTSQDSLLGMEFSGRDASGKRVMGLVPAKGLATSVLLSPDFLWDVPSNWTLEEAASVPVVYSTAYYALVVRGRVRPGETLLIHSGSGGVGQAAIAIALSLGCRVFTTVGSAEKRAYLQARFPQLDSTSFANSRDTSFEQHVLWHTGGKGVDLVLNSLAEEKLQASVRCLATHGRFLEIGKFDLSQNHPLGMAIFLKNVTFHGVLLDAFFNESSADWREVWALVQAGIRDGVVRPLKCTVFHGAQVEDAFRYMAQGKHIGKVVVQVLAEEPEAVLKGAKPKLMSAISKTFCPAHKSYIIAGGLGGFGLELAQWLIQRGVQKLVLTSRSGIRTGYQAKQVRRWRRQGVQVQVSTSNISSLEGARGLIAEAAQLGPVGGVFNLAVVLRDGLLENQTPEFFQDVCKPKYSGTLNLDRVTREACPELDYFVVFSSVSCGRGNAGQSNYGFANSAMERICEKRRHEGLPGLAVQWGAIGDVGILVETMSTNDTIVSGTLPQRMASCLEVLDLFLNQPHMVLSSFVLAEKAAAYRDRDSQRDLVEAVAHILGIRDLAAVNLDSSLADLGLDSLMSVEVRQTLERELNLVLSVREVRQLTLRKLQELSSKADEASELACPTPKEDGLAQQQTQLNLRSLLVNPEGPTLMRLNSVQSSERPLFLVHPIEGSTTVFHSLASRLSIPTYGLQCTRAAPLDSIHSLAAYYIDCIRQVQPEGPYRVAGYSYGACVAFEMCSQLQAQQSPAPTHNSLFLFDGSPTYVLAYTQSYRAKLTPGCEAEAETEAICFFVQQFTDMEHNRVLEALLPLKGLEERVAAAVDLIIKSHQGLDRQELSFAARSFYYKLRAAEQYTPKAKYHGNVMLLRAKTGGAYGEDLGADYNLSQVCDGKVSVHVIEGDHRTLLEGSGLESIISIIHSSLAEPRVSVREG
Numeric answer only, unit nM assumed.

Would you please look over these solved cases?
O=C(N1CC[C@@H](CN2C(=O)C3(CC3)N=C2c2ccc(-c3ccc4occc4c3)cc2)C1)C1(O)CC1: 36
Cn1ncc2cc(-c3cnc(C4=NC5(CC5)C(=O)N4C[C@@H]4CCN(C(=O)C5CC5)C4)nc3)ccc21: 33100
O=C(C1CC1)N1CC[C@@H](CN2C(=O)C3(CC3)N=C2c2ccc(-c3ccc(-c4ccncc4)cc3)cc2)C1: 23

Incoming: What measured IC50 is associated with `Cn1ccc(C(=O)N2CC[C@@H](CN3C(=O)C4(CC4)N=C3c3ccc(-c4ccc5occc5c4)cc3)C2)n1` on Fatty acid synthase (Homo sapiens, UniProt P49327)?
Outgoing: 450

----------
tested on: A549; assay: Antiproliferative activity against human A549 cells in culture medium with 10% lipid-reduced serum after 4 days by ATP-Glo assay; type: functional, cell-based; conditions: A549, 96 h
metric: pEC50
Please report pEC50 as the negative decimal logarithm of the molar concentration, giving only the number.

Incoming: Which value of pEC50 has been reported for `Cn1cc(-c2ccc(-c3ccc(C4=NC5(CC5)C(=O)N4C[C@@H]4CCN(C(=O)C5CC5)C4)cc3)cc2)cn1` in the records?
Outgoing: 7.70
